test system: PA-I galactophilic lectin (Pseudomonas aeruginosa (strain ATCC 15692 / PAO1 / 1C / PRS 101 / LMG12228)) (UniProt Q05097)
Sequence (Q05097 whole entry): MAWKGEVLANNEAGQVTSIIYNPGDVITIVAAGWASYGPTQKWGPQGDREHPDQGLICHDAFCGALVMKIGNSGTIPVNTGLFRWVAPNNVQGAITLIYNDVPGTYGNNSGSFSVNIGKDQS
test description: Binding affinity to Pseudomonas aeruginosa LecA expressed in Escherichia coli BL21 (DE3) cells assessed as change in entropy by isothermal titration calorimetry
// boundary case: TdeltaS equal to -4 kcal/mol maps to FALSE; strictly smaller maps to TRUE

{"compound smiles": "O=Cc1ccc(S[C@@H]2O[C@H](CO)[C@H](O)[C@H](O)[C@H]2O)cc1", "label value": "FALSE"}
{"compound smiles": "C=C(c1ccc(OC)cc1)c1ccc(S[C@@H]2O[C@H](CO)[C@H](O)[C@H](O)[C@H]2O)cc1", "label value": "FALSE"}
{"compound smiles": "COc1ccc(S[C@@H]2O[C@H](CO)[C@H](O)[C@H](O)[C@H]2O)cc1", "label value": "FALSE"}

Please let me know if `CC(C)c1ccc(S[C@@H]2O[C@H](CO)[C@H](O)[C@H](O)[C@H]2O)cc1` shows TdeltaS below -4 kcal/mol. TRUE

Please let me know if `COc1ccc(C(=O)c2cc(OC)c(OC)c(OC)c2)cc1S[C@@H]1O[C@H](CO)[C@H](O)[C@H](O)[C@H]1O` shows TdeltaS below -4 kcal/mol. TRUE

Please let me know if `C=C(c1ccc(OC)cc1)c1cccc(S[C@@H]2O[C@H](CO)[C@H](O)[C@H](O)[C@H]2O)c1` shows TdeltaS below -4 kcal/mol. TRUE

----------
test system: PA-I galactophilic lectin (Pseudomonas aeruginosa (strain ATCC 15692 / PAO1 / 1C / PRS 101 / LMG12228)) (UniProt Q05097)
test description: Binding affinity to Pseudomonas aeruginosa LecA expressed in Escherichia coli BL21 (DE3) cells assessed as gibbs free energy change by isothermal titration calorimetry
property name: deltaG (kcal/mol)
Express your answer in kcal/mol, writing the number without its unit.

{"compound": "C=C(c1cc(OC)c(OC)c(OC)c1)c1ccc(OC)c(S[C@@H]2O[C@H](CO)[C@H](O)[C@H](O)[C@H]2OC(C)=O)c1", "reading unit": "kcal/mol", "recorded value": -7.03}
{"compound": "CC(C)c1ccc(S[C@@H]2O[C@H](CO)[C@H](O)[C@H](O)[C@H]2O)cc1", "reading unit": "kcal/mol", "recorded value": -7.65}

Switching to the query record.
What does the data say about its deltaG? Entry: C=C(c1ccc(S[C@@H]2O[C@H](CO)[C@H](O)[C@H](O)[C@H]2O)cc1)c1cccc(S[C@H]2O[C@@H](CO)[C@@H](O)[C@@H](O)[C@@H]2O)c1 (single isomer, unassigned) -9.25
